Tested on: HBV
Test: PHH screening protocol: HBsAg and HBeAg levels by MSD ELISA
Type: cell-based, Hepatitis B Virus
Details: Hepatitis B virus, 336 h, read-out: HBsAg EC50, virus 30P; PHH donor 8130; d 25; compound removed after 14 days of treatment
Experimental: HBV antiviral activity was assessed in primary human hepatocytes (PHH) in a 96-well format. PHH were (Life Technologies, Chicago, 11) plated on collagen coated tissue culture plates using Plating Media containing William's Medium E supplemented with 1% Penicillin/Streptomycin, 4 μg/mL human recombinant insulin, 2 mM glutamax, 15 mM Hepes, 1 μM dexamethasone and 5% fetal bovine serum (Life Technologies, Cat#A12176-01 Life Technologies, Chicago, Ill.). […]
pEC50: −log10 of the molar value.
MEASURED PROPERTY: pEC50

                                   compound  experimental_result
0  CCOC(=O)c1ccnc(CNCC(=O)N(CC)CCN(C)C)c1 [Example 8]                 8.70

----------
assay: Alamar Blue cell viability assay; type: cell-based; conditions: human
MEASURED PROPERTY: CC50

                                   molecule  measured_property  experimental_result
0  N#CNC(=O)c1ccncc1Nc1nn(CCN2CCC(F)(F)CC2)c2ccc(F)cc12               CC50              ≥ 50 µM
1  O=C(O)c1ccncc1Nc1nn(CCN2CCC(F)(F)CC2)c2ccc(F)cc12               CC50              ≥ 50 µM
2  Clc1ccc(N/N=C(\c2ccccc2)c2ccccn2)nc1 [Example 4, JIB-04, reference compound]               CC50             ≥ 100 µM
3    CCOC(=O)c1ccnc(CNCC(=O)N(CC)CCN(C)C)c1               CC50              28.2 µM
4  O=C(O)c1ccnc(-n2ncc(CCO)c2OCc2ccc(F)cc2)c1               CC50              ≥ 50 µM
5      CCN(CCN(C)C)C(=O)CNCc1cc(C(=O)O)ccn1               CC50              ≥ 50 µM
6         CCN(CCN(C)C)C(=O)CNCc1cc(C=O)ccn1               CC50              ≥ 50 µM
7  NC1CC1c1cccc(OCC[C@H](NC(=O)c2ccccc2)C(=O)NCc2ccccc2)c1 (stereo partly drawn) [Example 10, NCL-1, reference compound]               CC50              8.12 µM
8  N[C@H]1C[C@@H]1c1ccc(-c2cccc(O)c2)cc1 [Example 6, OG-L002, reference compound]               CC50             ≥ 100 µM

----------
tested on: HBV; experiment: PHH screening protocol: HBsAg and HBeAg levels by MSD ELISA; format: cell-based, Hepatitis B Virus; details: Hepatitis B virus, 408 h, read-out: HBsAg EC50, virus 65P (GTD); PHH 8181; day 17 p.i.
pEC50: −log10 of the molar value.
MEASURED PROPERTY: pEC50

In [3]: df
Out[3]:
                            smiles_record  experimental_result
0  CCOC(=O)c1ccnc(CNCC(=O)N(CC)CCN(C)C)c1               > 8.70

----------
tested on: HBV; experiment: PHH screening protocol: HBsAg and HBeAg levels by MSD ELISA; format: cell-based, Hepatitis B Virus; details: Hepatitis B virus, 408 h, read-out: HBsAg EC50, virus 91P (GTA); PHH 8130; day 17 p.i.
pEC50: −log10 of the molar value.
MEASURED PROPERTY: pEC50

In [3]: df
Out[3]:
                                   molecule  experimental_result
0  CCOC(=O)c1ccnc(CNCC(=O)N(CC)CCN(C)C)c1 [Example 8]                 7.52

----------
pIC50: −log10 of the molar value.
Measured pIC50 (KDM5A (Homo sapiens, UniProt P29375))
MEASURED PROPERTY: pIC50

>>> print(df.to_string())
                                   compound                          study_target  experimental_result
0  N#CNC(=O)c1ccncc1Nc1nn(CCN2CCC(F)(F)CC2)c2ccc(F)cc12  KDM5A (Homo sapiens, UniProt P29375)                 7.54
1      CCN(CCN(C)C)C(=O)CNCc1cc(C(=O)O)ccn1  KDM5A (Homo sapiens, UniProt P29375)                 7.62
2             CCN(CC)CCCCNCc1cc(C(=O)O)ccn1  KDM5A (Homo sapiens, UniProt P29375)                 7.96
3   Cc1cc(Cl)ccc1COc1ccnn1-c1cc(C(=O)O)ccn1  KDM5A (Homo sapiens, UniProt P29375)                 7.55
4  O=C(O)c1ccnc(-n2ncc(CCO)c2OCc2ccc(F)cc2)c1  KDM5A (Homo sapiens, UniProt P29375)                 5.80
5  Nc1c(C(=O)O)ccnc1C(=O)O [Example 7, reference compound]  KDM5A (Homo sapiens, UniProt P29375)                 5.92
6  O=C(O)c1ccncc1Nc1nn(CCN2CCC(F)(F)CC2)c2ccc(F)cc12  KDM5A (Homo sapiens, UniProt P29375)                 7.68

----------
Molecular target: KDM2A (Homo sapiens)
Sequence (Q9Y2K7 1-1162): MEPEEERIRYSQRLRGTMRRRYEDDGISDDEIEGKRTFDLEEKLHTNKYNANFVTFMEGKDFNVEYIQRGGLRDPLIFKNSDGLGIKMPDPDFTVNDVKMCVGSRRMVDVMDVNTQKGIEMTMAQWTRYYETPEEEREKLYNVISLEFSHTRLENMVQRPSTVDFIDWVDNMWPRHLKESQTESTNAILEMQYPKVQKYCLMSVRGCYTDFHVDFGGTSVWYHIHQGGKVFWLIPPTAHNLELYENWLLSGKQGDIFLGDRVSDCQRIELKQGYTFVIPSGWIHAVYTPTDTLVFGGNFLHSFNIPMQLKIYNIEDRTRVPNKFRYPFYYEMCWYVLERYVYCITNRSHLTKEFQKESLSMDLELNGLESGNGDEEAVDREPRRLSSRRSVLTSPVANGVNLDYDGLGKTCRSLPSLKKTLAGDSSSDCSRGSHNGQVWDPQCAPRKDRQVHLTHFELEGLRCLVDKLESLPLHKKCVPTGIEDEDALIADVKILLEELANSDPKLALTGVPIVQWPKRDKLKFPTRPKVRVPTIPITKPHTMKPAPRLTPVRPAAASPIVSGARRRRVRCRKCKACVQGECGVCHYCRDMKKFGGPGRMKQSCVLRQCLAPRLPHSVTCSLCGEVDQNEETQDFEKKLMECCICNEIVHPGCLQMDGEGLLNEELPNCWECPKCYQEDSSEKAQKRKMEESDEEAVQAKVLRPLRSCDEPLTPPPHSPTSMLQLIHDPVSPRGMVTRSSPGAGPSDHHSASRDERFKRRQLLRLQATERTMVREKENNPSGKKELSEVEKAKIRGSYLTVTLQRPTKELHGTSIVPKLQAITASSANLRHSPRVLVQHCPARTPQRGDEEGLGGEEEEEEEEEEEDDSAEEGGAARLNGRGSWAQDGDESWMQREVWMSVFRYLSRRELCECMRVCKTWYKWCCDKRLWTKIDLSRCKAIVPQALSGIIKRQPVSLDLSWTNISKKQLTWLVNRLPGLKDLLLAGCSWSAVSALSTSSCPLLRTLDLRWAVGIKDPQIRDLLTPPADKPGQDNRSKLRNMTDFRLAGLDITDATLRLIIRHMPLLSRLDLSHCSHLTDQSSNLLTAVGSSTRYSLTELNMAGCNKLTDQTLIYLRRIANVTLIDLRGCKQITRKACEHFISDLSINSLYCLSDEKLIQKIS
MEASURED PROPERTY: IC50 (nM)

>>> df
                                   compound          study_target  measured_property  unit_of_measurement  experimental_result
0             CCN(CC)CCCCNCc1cc(C(=O)O)ccn1  KDM2A (Homo sapiens)               IC50                   nM                 2000
1  O=C(O)c1ccncc1Nc1nn(CCN2CCC(F)(F)CC2)c2ccc(F)cc12  KDM2A (Homo sapiens)               IC50                   nM                  510
2   Cc1cc(Cl)ccc1COc1ccnn1-c1cc(C(=O)O)ccn1  KDM2A (Homo sapiens)               IC50                   nM                  450
3  Nc1c(C(=O)O)ccnc1C(=O)O [Example 7, reference compound]  KDM2A (Homo sapiens)               IC50                   nM                  360
4      CCN(CCN(C)C)C(=O)CNCc1cc(C(=O)O)ccn1  KDM2A (Homo sapiens)               IC50                   nM                  650
